System: 521955-158-R2-J5-PDC complex spheroids, viability
Experiment: Anticancer human tumor 521955-158-R2-J5-PDC patient-derived pancreatic carcinoma cell line growth inhibition [RAS]
Conditions: second compound 0.00949 µM; first compound 0.00949 µM; hits give low values
parameter_measured: viability, T/C (%)

compound	value_measured
CC1(C)CCC(Nc2ncc(C(F)(F)F)c(-c3c[nH]c4c(P(C)(C)=O)c(C#N)ccc34)n2)CN1 (centres undefined) + CCn1c(-c2cc(N3CCN(C)CC3)cnc2C(C)OC)c2c3cc(ccc31)-c1csc(n1)CC(NC(=O)C1CC1C)C(=O)N1CCCC(N1)C(=O)OCC(C)(C)C2	20.4
CC1(C)CCC(Nc2ncc(C(F)(F)F)c(-c3c[nH]c4c(P(C)(C)=O)c(C#N)ccc34)n2)CN1 (centres undefined) + CCn1c(-c2cccnc2C(C)OC)c2c3cc(ccc31)N1CCOC(CC(NC(=O)C(C(C)C)N(C)C(=O)C3(F)CCN(C(=O)C#CC(C)(C)N(C)C)CC3)C(=O)N3CCCC(N3)C(=O)OCC(C)(C)C2)C1	52
CCc1c2c(nc3ccc(O)cc13)-c1cc3c(c(=O)n1C2)COC(=O)[C@]3(O)CC + CCn1c(-c2cc(N3CCN(C)CC3)cnc2C(C)OC)c2c3cc(ccc31)-c1csc(n1)CC(NC(=O)C1CC1C)C(=O)N1CCCC(N1)C(=O)OCC(C)(C)C2	19.6
CCc1c2c(nc3ccc(O)cc13)-c1cc3c(c(=O)n1C2)COC(=O)[C@]3(O)CC + CCn1c(-c2cccnc2C(C)OC)c2c3cc(ccc31)N1CCOC(CC(NC(=O)C(C(C)C)N(C)C(=O)C3(F)CCN(C(=O)C#CC(C)(C)N(C)C)CC3)C(=O)N3CCCC(N3)C(=O)OCC(C)(C)C2)C1	14.4

----------
Tested on: 521955-158-R2-J5-PDC complex spheroids, viability
Assay: Anticancer human tumor 521955-158-R2-J5-PDC cell line growth inhibition [RAS];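 further: spheroids also contain HUVEC endothelial cells and mesenchymal stem cells as stroma; compound exposure lasted seven days before the viability read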
Conditions: second compound 0.003 µM; first compound 0.1 µM; hits give low values
Measured viability, T/C values are reported for all entries that follow.
parameter_measured: viability, T/C (%)

compound	value_measured
CC(C)n1nc(-c2ccc3oc(N)nc3c2)c2c(N)ncnc21 + CCn1c(-c2cc(N3CCN(C)CC3)cnc2C(C)OC)c2c3cc(ccc31)-c1csc(n1)CC(NC(=O)C1CC1C)C(=O)N1CCCC(N1)C(=O)OCC(C)(C)C2	7.9
CC(C)n1nc(-c2ccc3oc(N)nc3c2)c2c(N)ncnc21 + CCn1c(-c2cccnc2C(C)OC)c2c3cc(ccc31)N1CCOC(CC(NC(=O)C(C(C)C)N(C)C(=O)C3(F)CCN(C(=O)C#CC(C)(C)N(C)C)CC3)C(=O)N3CCCC(N3)C(=O)OCC(C)(C)C2)C1	30.1
CC(=O)OC12COC1CC(O)C1(C)C(=O)C(O)C3=C(C)C(OC(=O)C(O)C(NC(=O)OC(C)(C)C)c4ccccc4)CC(O)(C(OC(=O)c4ccccc4)C21)C3(C)C (centres undefined) + CCn1c(-c2cccnc2C(C)OC)c2c3cc(ccc31)N1CCOC(CC(NC(=O)C(C(C)C)N(C)C(=O)C3(F)CCN(C(=O)C#CC(C)(C)N(C)C)CC3)C(=O)N3CCCC(N3)C(=O)OCC(C)(C)C2)C1	25.1
C[C@@H](NC(=O)c1ncnc(N)c1Cl)c1ncc(C(=O)Nc2cc(C(F)(F)F)c(Cl)cn2)s1 + CCn1c(-c2cc(N3CCN(C)CC3)cnc2C(C)OC)c2c3cc(ccc31)-c1csc(n1)CC(NC(=O)C1CC1C)C(=O)N1CCCC(N1)C(=O)OCC(C)(C)C2	39.5
